Data credit: the SangsterLogP compilation

# procedure text: method code SF-AS, from DOI: 10.1016/s0006-291x(89)80063-4, PMID: 2916990
# measurement setup: pH 7.5
Kindly supply the reported logD values for the records listed here.
Lab note: jot down the number only; don't add units.

**Q:** Given `Nc1nc2c(ncn2[C@H]2C[C@H](F)[C@@H](CO)O2)c(=O)[nH]1` , state its recorded logD.
**A:** -0.66

**Q:** Please give the result for `O=c1ccn([C@H]2C[C@H](O)[C@@H](CO)O2)c(=O)[nH]1` too.
**A:** -1.51

**Q:** Lookup `Nc1ncnc2c1ncn2[C@H]1C[C@H](F)[C@@H](CO)O1`
**A:** 0.08

**Q:** Same read-out for `O=c1[nH]c(=O)n([C@H]2CC[C@@H](CO)O2)cc1Br` ?
**A:** -0.99

**Q:** And then `O=c1[nH]c(=O)n([C@H]2C[C@H](F)[C@@H](CO)O2)cc1Cl` , what is it?
**A:** -0.17

###

# procedure text: method code SF-AS, from DOI: 10.1016/s0006-291x(89)80063-4, PMID: 2916990
# measurement setup: pH 7.5
outcome measure: logD
API doc: respond with a numeric literal and nothing else, no unit.

**Q:** So what's the measured logD for this one? `Nc1nc(N)c2ncn([C@H]3C[C@H](O)[C@@H](CO)O3)c2n1`
**A:** -0.52

**Q:** // repeat for `Nc1ncnc2c1ncn2[C@H]1C=C[C@@H](CO)O1` and report
**A:** -0.36

**Q:** And what about the compound `[N-]=[N+]=N[C@H]1C[C@H](n2cnc3c(N)nc(N)nc32)O[C@@H]1CO` ?
**A:** 0.24

**Q:** Same for `O=c1[nH]c(=O)n([C@H]2C[C@H](F)[C@@H](CO)O2)cc1Br`
**A:** -0.04

**Q:** One more compound: `Nc1nc2c(ncn2[C@H]2CC[C@@H](CO)O2)c(=O)[nH]1`
**A:** -1.01

**Q:** Another compound to check: `[N-]=[N+]=N[C@H]1C[C@H](n2cnc3c(N)ncnc32)O[C@@H]1CO`
**A:** 0.35

###

# procedure text: method code SF-AS, from DOI: 10.1016/s0006-291x(89)80063-4, PMID: 2916990
# measurement setup: pH 7.5
Answer each item with its documented logD.
Quick one: just the number, no unit, thanks!

**Q:** Query: logD; subject: O=c1ccn(C2CCC(CO)O2)c(=O)[nH]1 (stereo not given)
**A:** -0.89

**Q:** Now consider `[N-]=[N+]=N[C@H]1C[C@H](n2cnc3c(=O)[nH]c(N)nc32)O[C@@H]1CO` and answer again.
**A:** -0.33

**Q:** Entry `O=c1[nH]c(=O)n([C@H]2CC[C@@H](CO)O2)cc1I` please
**A:** -0.61

**Q:** Again, but for `O=c1ccn([C@H]2C=C[C@@H](CO)O2)c(=O)[nH]1`
**A:** -1.07

**Q:** Same read-out for `[N-]=[N+]=N[C@@H]1[C@H](N=[N+]=[N-])[C@@H](CO)O[C@H]1n1cnc2c(N)ncnc21` ?
**A:** 0.8

**Q:** Here is the next compound: `O=c1ccn([C@H]2C[C@H](F)[C@@H](CO)O2)c(=O)[nH]1`
**A:** -0.49

**Q:** Please give the result for `O=c1[nH]c(=O)n([C@H]2CC[C@@H](CO)O2)cc1Cl` too.
**A:** -1.11

**Q:** Repeat for the following compound: `Nc1nc2c(ncn2[C@H]2C=C[C@@H](CO)O2)c(=O)[nH]1`
**A:** -1.21

**Q:** Entry Nc1nc(N)c2ncn([C@H]3CC(F)[C@@H](CO)O3)c2n1 (stereo not given in full) please
**A:** 0.05

**Q:** What do we get for `[N-]=[N+]=N[C@H]1C[C@H](n2ccc(N)nc2=O)O[C@@H]1CO` ?
**A:** -0.64
